Tested on: OATP1B3-expressing HeLa cells
Conditions: read-out: IC50 HeLa B3
Numbered stars: 1 amine (or outer) side, 2 acyl side, 3 side chain; on linkers, the order of the positions; unused ones are H or OH. Bridge positions count the residues as written; N and C are the ends. Square brackets hold non-standard residues; d marks the D form. Peptide text beside a SMILES is read from it. Adda = CO[C@@H](Cc1ccccc1)[C@@H](C)/C=C(C)/C=C/[C@H](N[*:1])[C@H](C)C(=O)[*:2]; dAsp(3S-Me) = C[C@H](C(=O)[*:3])[C@@H](N[*:1])C(=O)[*:2]; d(γGlu) = O=C(O)[C@@H](CCC(=O)[*:2])N[*:1]; NMeDha = C=C(NC)C(=O)O
Recorded IC50 by entry

{"MOLECULE": "C=C1C(=O)N[C@H](C)C(=O)N[C@@H](CC(C)C)C(=O)N[C@@H](C(=O)O)[C@H](C)C(=O)N[C@@H](Cc2c[nH]c3ccccc23)C(=O)N[C@@H](/C=C/C(C)=C/[C@H](C)[C@H](Cc2ccccc2)OC)[C@H](C)C(=O)N[C@@H](C(=O)O)CCC(=O)N1C [compound 8, LW, reference compound] (W[Adda][d(γGlu)][NMeDha][dA]L[dAsp(3S-Me)]-OH; lactam N-7)", "IC50 / pM": 160}
{"MOLECULE": "C=C1C(=O)N[C@H](C)C(=O)N[C@@H](CCCNC(=N)N)C(=O)N[C@@H](C(=O)O)[C@H](C)C(=O)N[C@@H](Cc2ccc(O)cc2)C(=O)N[C@@H](/C=C/C(C)=C/[C@H](C)[C@H](Cc2ccccc2)OC)[C@H](C)C(=O)N[C@@H](C(=O)O)CCC(=O)N1C [compound 16, MC-RY] (Y[Adda][d(γGlu)][NMeDha][dA]R[dAsp(3S-Me)]-OH; lactam N-7)", "IC50 / pM": 2500}
{"MOLECULE": "C/C=C1/NC(=O)CC[C@H](C(=O)O)NC(=O)[C@@H](C)[C@H](/C=C/C(C)=C/[C@H](C)[C@H](Cc2ccccc2)OC)NC(=O)[C@H](Cc2ccc(O)cc2)NC(=O)C[C@H](C(=O)O)NC(=O)[C@H](CC(C)C)NC(=O)[C@@H](C)NC1=O [compound 6, [D-Asp^3,(E)-Dhb^7]MC-LY]", "IC50 / pM": 180}
